Assay: in vitro
Parameters: dose or concentration left out as unconfirmed
Conditions: PAMPA
value-kind: Papp at 16 h (×10⁻⁶ cm/s)
Report only the number, with the unit ×10⁻⁶ cm/s understood.

Worked examples, 2 compounds total:
* NCCc1ccc(O)c(O)c1 [Dopamine, reference compound] | 0.17
* CC(=O)[C@H]1CC[C@H]2[C@@H]3CCC4=CC(=O)CC[C@]4(C)[C@H]3CC[C@]12C [Progesterone, reference compound] | 5.34

Proceeding to the next compound to report its Papp at 16 h.
Qu. // query Papp at 16 h value for entry COc1ccc(/C=C/C(=O)Nc2cc[n+](Cc3ccc(F)cc3)cc2)cc1OC.[Br-]
Ans. 2.89

----------
Reported values: log10 IC50 for AChE (from electric eel) (Electrophorus electricus, UniProt O42275), one per item.
Values reflect log10 of reported IC50 (µM).

- O=C(C=Cc1ccccc1)Nc1cc[n+](Cc2ccccc2)cc1.[Br-]: -1.27

Qu. Form entry - test system: AChE (from electric eel) (Electrophorus electricus, UniProt O42275); read-out: log10 IC50; compound: O=C(C=Cc1ccccc1)Nc1cc[n+](Cc2ccc(F)cc2)cc1.[Br-]
Sequence (O42275 24-633): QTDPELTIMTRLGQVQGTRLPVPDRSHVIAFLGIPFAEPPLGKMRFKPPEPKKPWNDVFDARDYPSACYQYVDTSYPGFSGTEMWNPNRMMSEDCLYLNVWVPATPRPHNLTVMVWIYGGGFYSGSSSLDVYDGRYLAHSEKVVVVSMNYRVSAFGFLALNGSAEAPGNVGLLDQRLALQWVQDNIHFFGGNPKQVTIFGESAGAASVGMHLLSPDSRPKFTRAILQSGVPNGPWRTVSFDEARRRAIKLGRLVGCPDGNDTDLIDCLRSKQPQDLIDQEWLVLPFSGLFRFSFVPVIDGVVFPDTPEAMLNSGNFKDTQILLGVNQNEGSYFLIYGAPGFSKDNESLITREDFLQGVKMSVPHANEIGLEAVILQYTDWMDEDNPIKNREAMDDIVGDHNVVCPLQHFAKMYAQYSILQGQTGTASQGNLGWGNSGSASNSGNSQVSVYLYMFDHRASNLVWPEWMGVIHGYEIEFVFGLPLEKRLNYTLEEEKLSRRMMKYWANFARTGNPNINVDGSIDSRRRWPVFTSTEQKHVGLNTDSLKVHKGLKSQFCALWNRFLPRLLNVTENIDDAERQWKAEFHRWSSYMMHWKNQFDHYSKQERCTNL
Ans. -1.04

Qu. Record O=C(C=Cc1ccccc1)Nc1cc[n+](Cc2cccc(Br)c2)cc1.[Br-] : what is its log10 IC50 with AChE (from electric eel) (Electrophorus electricus, UniProt O42275)?
Ans. -0.81

Qu. For the record O=C(C=Cc1ccccc1)Nc1cc[n+](Cc2ccc(Br)cc2)cc1.[Br-] , what value of log10 IC50 is listed for AChE (from electric eel) (Electrophorus electricus, UniProt O42275)?
Ans. 0.16

Qu. Give log10 IC50 (AChE (from electric eel) (Electrophorus electricus, UniProt O42275)) of the following compound: Cc1ccc(C[n+]2ccc(NC(=O)C=Cc3ccccc3)cc2)cc1.[Br-]
Ans. 0.10

Qu. Query log10 IC50 on AChE (from electric eel) (Electrophorus electricus, UniProt O42275) for COc1ccc(/C=C/C(=O)Nc2cc[n+](Cc3ccc(Br)cc3)cc2)cc1OC.[Br-]
Ans. -1.30

Qu. Give recorded log10 IC50 with AChE (from electric eel) (Electrophorus electricus, UniProt O42275) for the following compound: COc1ccc(/C=C/C(=O)Nc2cc[n+](Cc3ccc(C)cc3)cc2)cc1OC.[Br-]
Ans. -1.04

----------
Measured pIC50 on human AChE (Homo sapiens, UniProt P22303) follows.
Sequence (P22303 other isoform, or with tags, fused parts or gaps): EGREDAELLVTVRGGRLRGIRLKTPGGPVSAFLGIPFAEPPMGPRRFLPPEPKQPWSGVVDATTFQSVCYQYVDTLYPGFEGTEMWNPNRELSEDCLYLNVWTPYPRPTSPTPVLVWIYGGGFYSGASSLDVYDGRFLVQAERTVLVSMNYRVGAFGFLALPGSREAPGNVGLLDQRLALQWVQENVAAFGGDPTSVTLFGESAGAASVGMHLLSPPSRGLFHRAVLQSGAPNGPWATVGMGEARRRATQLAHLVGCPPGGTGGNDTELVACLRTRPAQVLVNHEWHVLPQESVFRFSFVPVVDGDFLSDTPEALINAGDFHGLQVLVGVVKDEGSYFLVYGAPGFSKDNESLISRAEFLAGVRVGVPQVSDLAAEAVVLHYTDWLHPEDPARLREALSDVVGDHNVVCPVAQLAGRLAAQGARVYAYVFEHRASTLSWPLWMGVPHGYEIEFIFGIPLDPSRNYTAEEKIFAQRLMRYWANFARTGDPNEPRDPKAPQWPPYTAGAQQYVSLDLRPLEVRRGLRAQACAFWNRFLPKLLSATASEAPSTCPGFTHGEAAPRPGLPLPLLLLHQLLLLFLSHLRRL
pIC50 is a log-scale quantity: -log10 of the concentration expressed in molar.

Here is how some molecules turned out for pIC50.
• COc1ccc(/C=C/C(=O)Nc2cc[n+](Cc3cccc(C)c3)cc2)cc1OC.[Br-] [Compound 5i] = 7.36
• COc1ccc(/C=C/C(=O)Nc2cc[n+](Cc3ccc(C)cc3)cc2)cc1OC.[Br-] [Compound 5j] = 7.02
• COc1ccc(/C=C/C(=O)Nc2cc[n+](Cc3cccc(F)c3)cc2)cc1OC.[Br-] [Compound 5k] = 7.72
• COc1ccc(/C=C/C(=O)Nc2cc[n+](Cc3cccc(Br)c3)cc2)cc1OC.[Br-] [Compound 5m] = 7.10
• COc1ccc(/C=C/C(=O)Nc2cc[n+](Cc3ccc(Br)cc3)cc2)cc1OC.[Br-] [Compound 5n] = 7.29

Attention now turns to another entry.
Qu. I have this molecule here, COc1ccc(/C=C/C(=O)Nc2cc[n+](Cc3ccc(F)cc3)cc2)cc1OC.[Br-] [Compound 5l] , and I need its recorded pIC50.
Ans. 8.07
